// provenance: patent US6362134B1

System: Setaria
measurement-notes: Herbicidal action before emergence of the plants (pre-emergent action)
Assay type: in vivo
condition-set: 2000 g of active substance/ha, sprayed immediately after sowing, evaluated after 3 weeks, ratings scale of nine levels
Listed here are compounds together with their documented Pre-emergent action, rating, Setaria.
quantity-kind: Pre-emergent action, rating, Setaria

compound	assayed-target	quantity-kind	result-number
CC1(C)CCCN(S2=NC(N)=NC(Oc3cc(F)ccc3F)=N2)C1 (centres unmarked) [6.129]	Setaria	Pre-emergent action, rating, Setaria	4
CN(Cc1ccccc1)S1=NC(N)=NC(Oc2c(F)c(F)c(F)c(F)c2F)=N1 (centres unmarked) [6.192]	Setaria	Pre-emergent action, rating, Setaria	1
NC1=NC(Oc2c(F)c(F)c(F)c(F)c2F)=NS(OC2CCCCCCC2)=N1 (centres unmarked) [5.176]	Setaria	Pre-emergent action, rating, Setaria	2
CC1CN(S2=NC(N)=NC(Oc3c(F)c(F)c(F)c(F)c3F)=N2)CCC(C)(C)C1 (single isomer, unassigned) [6.92]	Setaria	Pre-emergent action, rating, Setaria	1
CN(Cc1ccc(Cl)nc1)S1=NC(N)=NC(Oc2c(F)c(F)c(F)c(F)c2F)=N1 (centres unmarked) [6.170]	Setaria	Pre-emergent action, rating, Setaria	4
CC1CCC(OS2=NC(N)=NC(Oc3c(F)c(F)c(F)c(F)c3F)=N2)CC1 (centres unmarked) [5.326]	Setaria	Pre-emergent action, rating, Setaria	4
CC1CCC2C(CCN2S2=NC(N)=NC(Oc3c(F)c(F)c(F)c(F)c3F)=N2)C1 (centres unmarked) [6.298]	Setaria	Pre-emergent action, rating, Setaria	2
CC1CC(C)CC(OS2=NC(N)=NC(Oc3c(F)c(F)c(F)c(F)c3F)=N2)C1 (centres unmarked) [5.120]	Setaria	Pre-emergent action, rating, Setaria	2
